Tested on: Colon adenocarcinoma cell line
Test: In vitro cytotoxicity against Human colon adenocarcinoma cells was determined
Assay type: functional
Known CC50 of a selection of molecules

{"CHEM SMILES": "CN(C)CCNc1ccc(NCCN(C)C)c2c1C(=O)c1c(Cl)ccc(Cl)c1C2=O", "READOUT UNITS": "nM", "CC50": 130}
{"CHEM SMILES": "CN(C)CCNc1ccc(O)c2c1C(=O)c1c(Cl)ccc(Cl)c1C2=O", "READOUT UNITS": "nM", "CC50": 522}
{"CHEM SMILES": "CN(C)CCNc1ccc(Cl)c2c1C(=O)c1c(Cl)ccc(NCCN(C)C)c1C2=O", "READOUT UNITS": "nM", "CC50": 229}
{"CHEM SMILES": "O=C1c2cccc(NCCNCCO)c2C(=O)c2cccc(Cl)c21", "READOUT UNITS": "nM", "CC50": 1400}

The values you see were collected from ChEMBL document CHEMBL1123842.
